- Test system: 201T
- runDescription: relative viability (nuclei count vs DMSO), 5 days (fraction); higher = more cells survive
- studyConditions: first compound 20 µM
Kindly supply the reported relative viability values for the records listed here.
Numbers only.

Study these solved cases before continuing.
COCC1(CO)C(=O)C2CCN1CC2 (configuration not stated) [PRIMA-1MET] + N=C(N)NC(=N)NCCc1ccccc1 [Phenformin] (partner 250 µM) : 0.464
COCC1(CO)C(=O)C2CCN1CC2 (configuration not stated) [PRIMA-1MET] + Cc1nc(Nc2ncc(C(=O)Nc3c(C)cccc3Cl)s2)cc(N2CCN(CCO)CC2)n1 [Dasatinib] (partner 0.075 µM) : 0.582
COCC1(CO)C(=O)C2CCN1CC2 (configuration not stated) [PRIMA-1MET] + CCNC(=O)c1noc(-c2cc(C(C)C)c(O)cc2O)c1-c1ccc(CN2CCOCC2)cc1 [Luminespib] (partner 0.01 µM) : 1.06
COCC1(CO)C(=O)C2CCN1CC2 (configuration not stated) [PRIMA-1MET] + O=C(CCCCCCC(=O)Nc1ccccc1)NO [Vorinostat] (partner 1 µM) : 0.98
COCC1(CO)C(=O)C2CCN1CC2 (configuration not stated) [PRIMA-1MET] + CC(=O)c1c(C)c2cnc(Nc3ccc(N4CCNCC4)cn3)nc2n(C2CCCC2)c1=O [Palbociclib] (partner 0.5 µM) : 0.331

Items follow; give relative viability for each.
1. COCC1(CO)C(=O)C2CCN1CC2 (configuration not stated) [PRIMA-1MET] + Nc1nc2[nH]cc(CCc3ccc(C(=O)N[C@@H](CCC(=O)O)C(=O)O)cc3)c2c(=O)[nH]1 [Pemetrexed] (partner 0.2 µM)
2. COCC1(CO)C(=O)C2CCN1CC2 (configuration not stated) [PRIMA-1MET] + CC(C)C[C@H](NC(=O)[C@H](Cc1ccccc1)NC(=O)c1cnccn1)B(O)O [Bortezomib] (partner 0.002 µM)

[0.328, 1.08]
